System: MS2 coat protein
Assay: apparent Kd, MS2 coat protein; higher = weaker binding; RNA-MaP array; FMN 200 µM where present
Details: designed as: OFF switch for flavin mononucleotide; no ligand
Recorded apparent Kd by entry
Respond with the bare value in nM.

UGAGCCUCGUGAGGAUAUACAUGAGGAUCACCCAUGUAAAUGAAAGAUAGCUCGAAACGAGCAAAGUAGAAGGCACGAGGCUCA | 17.1
GAGCGGUGAGCAGGAUAUCCACAUUGCCUCCUACAUGAGGAUCACCCAUGUGGAGAAGGGUUUAUAAGUUCGUGUAUACUCAAU | 10.5
CGUCAGUGAGGAUAUGGUAUCGUGUACAUGAGGAUCACCCAUGUUUCUUGGGACUAUAUACUAGAAGGCACUGACG | 16

Here is another sequence to look at.
### Prompt Lab note: need apparent Kd with MS2 coat protein for entry CUUGUGUUAGGAUAUGCGCCCUGCAGAAGCAGGGCCAGAGAGCAGAAGGAACAUGAGGAUCACCCAUGUGUGAC , please look it up.
### Response 65.5
